Test: cell viability by MTT assay in mock-infected cells
Format: cell-based, canine
Settings: dog; mock-infected MDCK cells, MTT, 24 h; read-out: CC50 (50% cytotoxic concentration)
EXPERIMENTAL_ENDPOINT: CC50 at 24 h

For the molecule shown here, O=C(Nc1ncc([N+](=O)[O-])s1)c1ccccc1O [compound 3, Tizoxanide, reference compound] , give the reported CC50 at 24 h.
> 189 µM

Field request: CC50 at 24 h | item: CC(C)(C)[C@H](NC(=O)c1ccccc1O)C(=O)Nc1ncc(Cl)s1
40.8 µM

Which CC50 at 24 h value is on record for O=C(Nc1ncc(Cl)s1)c1ccccc1O [compound 4, reference compound] ?
> 196 µM

Endpoint output: CC50 at 24 h of CC(C)[C@H](NC(=O)c1ccccc1O)C(=O)Nc1ncc(Cl)s1 . Value?
42.4 µM

Name the reported CC50 at 24 h value associated with the molecule CC(C)[C@H](NC(=O)c1ccccc1O)C(=O)Nc1ncc([N+](=O)[O-])s1
> 137 µM

Which CC50 at 24 h is listed for CC(C)(C)[C@H](NC(=O)c1ccccc1O)C(=O)Nc1ncc([N+](=O)[O-])s1 ?
> 132 µM

---

System: influenza A virus (IAV) strain A/PuertoRico/8/1934(H1N1) (PR8)
Assay: microbe, parasite or virus in culture
Format: cell-based
Conditions: Influenza A virus, MDCK, 24 h; read-out: IC90 (90% inhibitory concentration)
EXPERIMENTAL_ENDPOINT: IC90

Fill blank: measured IC90 of the molecule CC(C)[C@H](NC(=O)c1ccccc1O)C(=O)Nc1ncc([N+](=O)[O-])s1 [compound 21] is ____.
> 137 µM

# get_value(readout='IC90', item= CC(C)[C@H](NC(=O)c1ccccc1O)C(=O)Nc1ncc(Cl)s1 [compound 22] )
> 42.4 µM

Given CC(C)(C)[C@H](NC(=O)c1ccccc1O)C(=O)Nc1ncc(Cl)s1 [compound 20] , state its recorded IC90.
> 40.8 µM
